- target.entity: human ALK5 (ALK5 T204D kinase domain) (Homo sapiens, UniProt P36897, T204D)
- Construct: The kinase domain of human ALK5 (amino acids 200-503)
- Sequence (P36897 200-503 T204D): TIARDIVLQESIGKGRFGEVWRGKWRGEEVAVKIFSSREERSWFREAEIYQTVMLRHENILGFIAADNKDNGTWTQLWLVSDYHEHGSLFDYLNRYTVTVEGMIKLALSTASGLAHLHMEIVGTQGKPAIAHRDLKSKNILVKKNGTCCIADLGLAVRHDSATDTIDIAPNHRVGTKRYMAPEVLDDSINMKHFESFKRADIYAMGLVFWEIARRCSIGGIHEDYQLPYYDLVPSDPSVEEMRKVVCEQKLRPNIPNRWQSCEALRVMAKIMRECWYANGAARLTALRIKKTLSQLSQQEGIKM
- assay.procedure: ALK5 kinase activity, [33P] phosphate incorporation into casein
- experimental.context: casein substrate, 1 μM unlabelled ATP
pIC50: −log10 of the molar value.
Mark 1.0 for reported pIC50 of 7 or greater; mark 0.0 for anything smaller.

Check this compound for pIC50 at or above 7: Cc1cncc(-c2cc(NCCc3c[nH]c4ccccc34)nc(-c3ccccn3)n2)c1 [Example 2.31]
0.0

What would you report for Cc1cccc(-c2nc(NCc3cccc(O)c3)cc(-c3cncc(-c4ccc(F)cc4)c3)n2)n1 [Example 2.71] ?
1.0

Then CNc1cc(-c2cncc(-c3cccc(OC)c3)c2)nc(-c2cccc(C)n2)n1 [Example 2.69] ?
0.0

---

- target.entity: human ALK5 (ALK5 T204D kinase domain) (Homo sapiens, UniProt P36897, T204D)
- Construct: The kinase domain of human ALK5 (amino acids 200-503)
- assay.procedure: ALK5 kinase activity, [33P] phosphate incorporation into casein
- experimental.context: casein substrate, 1 μM unlabelled ATP
- Protocol: The kinase activity of ALK5 is assessed by measuring radiolabelled phosphate [33P] incorporation in to the generic substrate, casein. The kinase domain of human ALK5 (amino acids 200-503) is fused to an N-terminal histidine tag. […] Test compounds and reference compounds are dissolved in assay buffer without DTT containing 5% (v/v) DMSO. […] Total enzyme activity is determined by measuring ALK5 T204D activity in the absence of ALK5 kinase inhibitor reference compounds. […]
API: label(entry) gives Condition met if the entry's IC50 is strictly smaller than 60 nM; on equality or larger values it gives Condition not met.

These recorded examples may help you get a feel for the data.
Oc1ccc2[nH]cc(CCNc3cc(-c4cccnc4)nc(-c4ccccn4)n3)c2c1
Condition not met
Cc1ccc2c(CCNc3cc(-c4cccnc4)nc(-c4cccc(C)n4)n3)c[nH]c2c1
Condition not met
c1ccc(-c2nc(NCc3c[nH]c4ccccc34)cc(-c3cccnc3)n2)nc1
Condition not met

Would you kindly look at the next entry?
Regarding COc1cccc(-c2cncc(-c3cc(NCc4cccc(O)c4)nc(-c4cccc(C)n4)n3)c2)c1 , kindly confirm whether its IC50 is beneath 60 nM.
Condition met

---

Each record here notes measured log10 of IC50.
- target.entity: human ALK5 (ALK5 T204D kinase domain) (Homo sapiens, UniProt P36897, T204D)
- Construct: The kinase domain of human ALK5 (amino acids 200-503)
- assay.procedure: ALK5 kinase activity, [33P] phosphate incorporation into casein
- experimental.context: casein substrate, 1 μM unlabelled ATP
Remember, log10 of IC50, in nM.

COc1cncc(-c2cc(NCc3cccc4[nH]ccc34)nc(-c3cccc(C)n3)n2)c1 [Example 2.2]
1.30
COc1cccc(-c2cncc(-c3cc(NCc4cccc(O)c4)nc(-c4ccccn4)n3)c2)c1 [Example 2.17]
1.90
c1ccc(-c2nc(NCCc3coc4ccccc34)cc(-c3cccnc3)n2)nc1 [Example 1.77]
2.26
Fc1cccc2c(CCNc3cc(-c4cccnc4)nc(-c4ccccn4)n3)c[nH]c12 [Example 1.42]
2.49

State its log10 of IC50 on human ALK5 (ALK5 T204D kinase domain) (Homo sapiens, UniProt P36897, T204D): Oc1ccccc1CCNc1cc(-c2cccnc2)nc(-c2ccccn2)n1 [Example 1.62]
2.18

Now try c1ccc(-c2nc(NCCc3cccc4[nH]ccc34)cc(-c3cccnc3)n2)nc1 [Example 1.2] .
1.48

Item: Fc1ccc2[nH]cc(CCNc3cc(-c4cccnc4)nc(-c4ccccn4)n3)c2c1 [Example 1.15]
2.90

Reference for the values: patent US7989458B2
